test: chemical genetic growth profiling, strain panel (AID 1159580);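 note: tested at 20 µM; growth read once vehicle control cultures reached saturation at 30 °C; 1 = growth at the plate median or of vehicle wells; lower values mean less growth of the strain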; details: S. cerevisiae deletion strains, growth OD, locus YCR088W, strain abp1, stronger effect = lower value
In all, about 5,500 compounds went through this assay and about 2,000 (36%) were called active. Inconclusive results (about 18%) are left out. The list shows a part of the results.
MEASURED PARAMETER: normalized growth
Number only, please.

Look over these answered cases.
- COMPOUND: "CCOC(=O)C(C)(N)Cc1ccc(O)c(O)c1 (stereo unspecified)"
  normalized growth: 0.995
- COMPOUND: "Nc1nc(N)c2nc(CNc3ccc(C(=O)NC(CCC(=O)O)C(=O)O)cc3)cnc2n1 (stereo unspecified)"
  normalized growth: 0.996

(Q) Look up normalized growth for this compound: `OC/C=C/c1ccc(O)c(O)c1`
(A) 1.01

(Q) Look up normalized growth for this compound: `CCOc1ccc2c(c1)C(C)=CC(C)(C)N2`
(A) 0.983

(Q) Look up normalized growth for this compound: `O=C(/C=C/c1ccc(O)c(O)c1)O[C@@H]1C[C@](O)(C(=O)O)C[C@@H](O)[C@H]1O`
(A) 0.968

(Q) Look up normalized growth for this compound: CN(Cc1cnc2nc(N)nc(N)c2n1)c1ccc(C(=O)NC(CCC(=O)O)C(=O)O)cc1 (stereo unspecified)
(A) 0.954

(Q) Look up normalized growth for this compound: Nc1nc2c(c(=O)[nH]1)N(C=O)C(CNc1ccc(C(=O)N[C@@H](CCC(=O)O)C(=O)O)cc1)CN2 (stereo partly specified)
(A) 0.971

(Q) Look up normalized growth for this compound: O=C(NC(Cc1cc(=O)[nH]c2ccccc12)C(=O)O)c1ccc(Cl)cc1 (stereo unspecified)
(A) 0.994

(Q) Look up normalized growth for this compound: CC(Cc1ccc(O)c(O)c1)(NN)C(=O)O (stereo unspecified)
(A) 1

(Q) Look up normalized growth for this compound: `c1ccc2[nH]c(-c3cscn3)nc2c1`
(A) 1.01

(Q) Look up normalized growth for this compound: `Oc1ccc(/C=C/c2cc(O)cc(O)c2)cc1`
(A) 1
